# procedure-text: Dark toxicity in human QBC939 cells assessed as reduction in cell viability incubated under dark for 24 hrs measured after 24 hrs by MTT assay
# Assay type: cell-based
# details: read-out: TC50
readout-label: CC50 at 48 h

Reference set (2 entries):
compound	CC50 at 48 h
Oc1cccc(-c2c3nc(c(-c4cccc(O)c4)c4ccc([nH]4)c(-c4cccc(O)c4)c4nc(c(-c5cccc(O)c5)c5ccc2[nH]5)CC4)C=C3)c1	6.08 µM
COC(=O)C1(C(=O)O)C2c3nc(c(-c4ccccc4)c4ccc([nH]4)c(-c4ccccc4)c4nc(c(-c5ccccc5)c5ccc([nH]5)c3-c3ccccc3)C=C4)C21 (stereo not drawn)	> 8 µM

Q: Entry COC(=O)C1(C(=O)NCCO)C2c3nc(c(-c4ccccc4)c4ccc([nH]4)c(-c4ccccc4)c4nc(c(-c5ccccc5)c5ccc([nH]5)c3-c3ccccc3)C=C4)C21 (stereo not drawn) : reported CC50 at 48 h = ?
Ans: > 8 µM
